Data origin, for the record: patent US6914045B2

Catalogue of molecules with associated MIC Coagulase Negative Staphylococcus (GC 4551)
tested on: Staphylococcus sp.; test: in vitro antibacterial evaluation, MIC by broth dilution; assay type: cell-based; conditions: broth dilution, 18 hours at 35° C.
Answer in µg/mL, number only, no unit symbol.

Q. Entry CC(C)CC(=O)OC1C(OC2C(CO)OC(Oc3ccc(CC4NC(=O)C(C(C)c5ccc(F)cc5)NC(=O)CNC(=O)C(CO)NC(=O)C(C(O)C5CNC(=N)N5C5OC(CO)C(O)C(O)C5O)NC(=O)C(C(O)C5CNC(=N)N5)NC4=O)cc3)C(O)C2O)OC(CO)C(O)C1O (stereo not shown) [Example 261b] : reported MIC Coagulase Negative Staphylococcus (GC 4551) = ?
A. 8

Q. // returns reported MIC Coagulase Negative Staphylococcus (GC 4551) for input COc1ccc(CC2OCC3OC(OC4C(CO)OC(Oc5ccc(CC6NC(=O)C(C(C)c7ccccc7)NC(=O)CNC(=O)C(CO)NC(=O)C(C(O)C7CNC(=N)N7C7OC(CO)C(O)C(O)C7O)NC(=O)C(C(O)C7CNC(=N)N7)NC6=O)cc5)C(O)C4O)C(O)C(O)C3O2)cc1 (stereo not shown)
A. 2

Q. Return reported MIC Coagulase Negative Staphylococcus (GC 4551); argument: CC(c1ccccc1)C1NC(=O)CNC(=O)C(CO)NC(=O)C(C(O)C2CNC(=N)N2C2OC(CO)C(O)C(O)C2O)NC(=O)C(C(O)C2CNC(=N)N2)NC(=O)C(Cc2ccc(OC3OC(CO)C(OC4OC5COC(c6ccccc6)OC5C(O)C4O)C(O)C3O)cc2)NC1=O (stereo not shown)
A. 1
